tested on: mu opiate receptor (MOR); experiment: MOR agonist activity using [35S]GTPγS binding assay in striatal membranes; type: biochemical; details: Series C-2; 1 μM compound; [35S]GTPγS binding to Gαo, striatal membranes
The entries below are paired with their reported MOR agonist activity, percent [35S]GTPγS binding at the stated compound concentration.
result_type: MOR agonist activity, percent [35S]GTPγS binding at the stated compound concentration

[[record]]
compound = "CN1CCC2(CC1)NCC(=O)N2Cc1ccccc1 [Compound C0105M]"
test_value = "220.3%"

[[record]]
compound = "O=C1CN(Cc2ccccc2)C2(CCNCC2)N1 [Compound C0115M]"
test_value = "226.8%"

[[record]]
compound = "COc1ccc(S(=O)(=O)N2CCOC23CCCNC3)cc1 (centres unmarked) [Compound C0145M-3]"
test_value = "289.2%"

[[record]]
compound = "CC(=O)c1ccc(S(=O)(=O)N2CCC3(CC2)OCCN3S(C)(=O)=O)cc1"
test_value = "193.4%"

[[record]]
compound = "COc1ccc(S(=O)(=O)N2CCC3(CC2)NCCO3)cc1"
test_value = "288.4%"

[[record]]
compound = "O=C1CN(Cc2ccccc2)C2(CCN(C3CCCCC3)CC2)N1 [C0137M(P7)]"
test_value = "193.8%"

[[record]]
compound = "CC(=O)c1ccc(S(=O)(=O)N2CCOC23CCNCC3)cc1"
test_value = "492.9%"

[[record]]
compound = "CN1CCC2(CC1)OCCN2S(=O)(=O)c1ccc(S(C)(=O)=O)cc1 [Compound C0106M]"
test_value = "240.7%"

[[record]]
compound = "C=CCN1CCC2(CC1)OCCN2S(=O)(=O)c1ccc(C(C)=O)cc1 [Compound C0096M]"
test_value = "328.9%"

[[record]]
compound = "CCCCN1CCC2(CC1)OCCN2S(=O)(=O)c1ccc(OC)cc1 [Compound C0102M]"
test_value = "272.0%"

[[record]]
compound = "CCOC(=O)CN1CCC2(CC1)OCCN2S(=O)(=O)c1ccc(C(C)=O)cc1 [Compound C0099M]"
test_value = "195.7%"

[[record]]
compound = "CCN1CCC2(CC1)OCCN2S(=O)(=O)c1ccc(C(C)=O)cc1 [Compound C0094M]"
test_value = "263.5%"

[[record]]
compound = "CC(=O)c1ccc(S(=O)(=O)N2CC(CN(C)C)OC23CCNCC3)cc1 (centres unmarked) [Compound C0118M]"
test_value = "261.5%"

[[record]]
compound = "CC(=O)c1ccc(S(=O)(=O)N2CC(CN(C)C)OC23CCN(C)CC3)cc1 (centres unmarked) [Compound C0108M]"
test_value = "258.5%"

[[record]]
compound = "CC(=O)c1ccc(S(=O)(=O)N2C(Cc3c[nH]cn3)C(=O)NC23CCNCC3)cc1 (centres unmarked) [Compound C0119M]"
test_value = "167.8%"

[[record]]
compound = "O=[N+]([O-])c1ccc(S(=O)(=O)N2CCC3(CC2)NCCS3)cc1"
test_value = "280.1%"

[[record]]
compound = "CCN1CCC2(CC1)OCCN2S(=O)(=O)c1ccc(OC)cc1 [Compound C0089M]"
test_value = "295.3%"

[[record]]
compound = "CC(=O)N1CCSC12CCN(S(=O)(=O)c1ccc([N+](=O)[O-])cc1)CC2"
test_value = "127.6%"

[[record]]
compound = "O=C1CN(C2CCc3ccccc3C2)C2(CCN(S(=O)(=O)c3ccccc3)CC2)N1 (centres unmarked) [C0136M(P5)]"
test_value = "237.3%"

[[record]]
compound = "COc1ccc(S(=O)(=O)N2CCC3(CC2)NCCC(=O)N3)cc1 [Compound C0142M]"
test_value = "192.5%"

[[record]]
compound = "O=S(=O)(c1ccccc1Oc1ccccc1)N1CCC2(CC1)NCCO2 [Compound C0149M-2]"
test_value = "406.7%"

[[record]]
compound = "COc1ccc(S(=O)(=O)N2CCC3(NCCO3)C3CCCCC32)cc1 (centres unmarked) [Compound C0144M-2]"
test_value = "295.9%"

[[record]]
compound = "CC(=O)c1ccc(S(=O)(=O)N2CCOC23CCN(CC(=O)O)CC3)cc1 [Compound C0100M]"
test_value = "245.9%"

